FYI, the data here is from ChEMBL document CHEMBL1961873.

Listed compounds paired with reported inhibition
System: Tyrosine-protein kinase ABL1 (Homo sapiens), P00519 [T315I]
Conditions: at 0.1 µM
Answer format: numeric, % implied, no suffix.

Take a look at these entries with their results.
{"cpd.smiles": "CN1CCC(C(=O)Nc2n[nH]c3nnc(-c4ccccc4)cc23)CC1", "subject.of.test": "Tyrosine-protein kinase ABL1 (Homo sapiens), P00519 [T315I]", "units.symbol": "%", "value": 3.4}
{"cpd.smiles": "Nc1ncnc2occ(-c3ccc(NC(=O)Nc4cccc(C(F)(F)F)c4)cc3)c12", "subject.of.test": "Tyrosine-protein kinase ABL1 (Homo sapiens), P00519 [T315I]", "units.symbol": "%", "value": 48.3}
{"cpd.smiles": "O=C1NC(=O)C(N2CCc3ccccc32)=C1c1ccc(Cl)cc1", "subject.of.test": "Tyrosine-protein kinase ABL1 (Homo sapiens), P00519 [T315I]", "units.symbol": "%", "value": 2.02}
{"cpd.smiles": "NCc1ccc(-c2nc(-c3ccc(Cl)c(O)c3)c(-c3ccncc3)[nH]2)cc1", "subject.of.test": "Tyrosine-protein kinase ABL1 (Homo sapiens), P00519 [T315I]", "units.symbol": "%", "value": 3.08}
{"cpd.smiles": "COc1cc2ncn(-c3cc(O[C@H](C)c4ccccc4Cl)c(C(N)=O)s3)c2cc1OC", "subject.of.test": "Tyrosine-protein kinase ABL1 (Homo sapiens), P00519 [T315I]", "units.symbol": "%", "value": 11.2}

-- ask Which inhibition value is on record for CCn1c(-c2nonc2N)nc2c(C#CC(C)(C)O)nc(OC[C@@H](N)c3ccccc3)cc21 ?
-- reply 0.08

-- ask Which inhibition reading was recorded for the compound NS(=O)(=O)c1ccc(N/N=C2\C(=O)Nc3ccc(C(=O)NCCc4c[nH]cn4)cc32)cc1 ?
-- reply 3.68

-- ask Fill in: inhibition of CS(=O)(=O)CCN(CC#N)Cc1ccc(-c2ccc3ncnc(Nc4ccc(OCc5cccc(F)c5)c(Cl)c4)c3c2)o1 is ___
-- reply -0.08

-- ask Return reported inhibition; argument: COc1ccc(-c2nn3ncccc3c2-c2ccnc(Nc3ccc(Cl)c(C(F)(F)F)c3)n2)cc1
-- reply 1.74

-- ask So what's the measured inhibition for this one? COc1cc(C)c(NC(=O)CN(C)C)cc1Nc1nc(Nc2cccc(F)c2C(N)=O)c2cc[nH]c2n1
-- reply 1.45

-- ask inhibition for CCn1c(-c2nonc2N)nc2c(N3CCCC3)nccc21 ?
-- reply -0.16

-- ask GET /values?readout=inhibition&item= Cn1cc(C=C2C(=O)Nc3cccnc32)c2ccccc21
-- reply 8.02

-- ask Which inhibition is reported for this compound? Cc1cccc(-c2n[nH]cc2-c2ccc3ncccc3n2)n1
-- reply -0.61

-- ask // lookup inhibition for Cc1nnc(-c2ccc(C)c(-c3ccc(C(=O)Nc4cccc(C#N)c4)cc3)c2)o1
-- reply 1.53

-- ask Suppose we examine the compound COc1cc(C=NNc2ncnc3c2cnn3-c2ccccc2)ccc1O ; what inhibition value has been reported?
-- reply 32

-- ask Sample CS(=O)(=O)Nc1ccc(N/C=C2\C(=O)Nc3ccccc32)cc1 — what was its inhibition?
-- reply 0.68

-- ask Any idea what its inhibition is? The compound is O=C1NC(=O)C(c2ccc(Cl)cc2)=C1Nc1ccc(Cl)c(C(=O)O)c1
-- reply 0.69

-- ask inhibition for COC(=O)Nc1nc2cc(Oc3cccc(NC(=O)Nc4cc(C(F)(F)F)ccc4F)c3)ccc2[nH]1 ?
-- reply 2.28

-- ask Dear colleague, I am looking for the recorded inhibition of the following compound: CCCN1CCC(Oc2cc(Nc3nc(Nc4cccc(F)c4C(N)=O)c4cc[nH]c4n3)c(OC)cc2Cl)CC1
-- reply 1.91

-- ask For CCn1c(-c2nonc2N)nc2cncc(C(=O)N3CC[C@H](N)C3)c21 , what is its reported inhibition?
-- reply 2.09
